Data origin: ChEMBL document CHEMBL1124988

Measured MNTD of individual entries
System: Vero
assay.protocol: Maximum nontoxic dose that allow exponential cell growth for three cell cycles
Format: functional, Chlorocebus sabaeus
Give a bare numeral; the unit µg/mL is implied.

// worked examples, MNTD included
| cpd.smiles | target.system | MNTD [µg/mL] |
| --- | --- | --- |
| Cn1cc(C(=O)c2ccc([N+](=O)[O-])cc2)cc1/C=C/C(=O)O | Vero | 15 |
| Cn1cc(C(=O)c2ccc([N+](=O)[O-])cc2)cc1/C=C/C(=O)NO | Vero | 15 |
| CN(C)c1ccc(C(=O)c2cc(/C=C/C(=O)O)n(C)c2)cc1 | Vero | 125 |
| Cn1cc(C(=O)c2ccccc2)cc1/C=C/C(=O)O | Vero | 250 |
| Nc1ncnc2c1ncn2[C@@H]1O[C@H](CO)[C@@H](O)[C@@H]1O | Vero | 6 |

Consider now this further compound.
// query MNTD value for entry "COc1ccc(C(=O)c2cc(/C=C/C(=O)O)n(C)c2)cc1"
500
